The reported measurements were obtained from PubChem BioAssay.

# test system: Albumin (Bos taurus)
# method summary: bovine serum albumin binders on microarray, profiling panel, artefact control for SMM control protein annotation, biochemical, small-molecule microarray, Alexa647 label, 635/667 nm fluorescence (AID 1118);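 further: score merges 667 nm emission intensity and signal-to-noise per printed compound spot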
# experimental setup: BSA-A647 binding, fluorescence 635 nm, higher = more signal
A collection of compounds and their measured composite z-score
Give your answer as a number; write no unit.

compound	composite z-score
CC(=O)NCCCC[C@@H]1NC(=O)[C@@H]2C[C@H](C(=O)NCCCCCCN(C)C)[C@H](c3ccc(O)cc3)N2C1=O	-0.853
COCCOC(=O)N1C(=O)[C@@]2(c3cc(C#CC4(O)CCCCCC4)ccc31)[C@H](C(=O)N1CCCCCCC1)[C@H]1C(=O)O[C@H](c3ccccc3)[C@H](c3ccccc3)N1[C@@H]2c1ccc(O)cc1	-0.653
C=CCN1C(=O)[C@@]2(O[C@@H](CCn3cc([C@H](O)c4ccccc4)nn3)[C@H]([Si](C)(C)c3ccc(OC)cc3)[C@H]2C)c2cc(N3CCOC3=O)ccc21	0.0865
CC(c1ccccc1)C(O)C1C=CC2C(=O)N(C)C(=O)C2N1N(c1ccccc1)c1ccccc1 (centres undefined)	0.867
C[C@@H]1CC[C@H]2C(=O)N3[C@@H](CC[C@@H](C)[C@@H]3c3cccc(N4CCOCC4)c3)C(=O)N2[C@H]1c1cccc(Br)c1	0.718

Lab note: compound `C[C@]1(C(=O)NCCN2CCOCC2)c2ccccc2C(=O)N(Cc2ccccc2)[C@H]1c1ccc(CO)cc1` tested on Albumin (Bos taurus); recorded composite z-score was -0.0435

Lab note: compound `CO[C@H]1COC(=O)CC=C[C@H](C)[C@@H](OC)COC(=O)[C@H](Cc2ccccc2)NC(=O)CC=C[C@@H]1C` tested on Albumin (Bos taurus); recorded composite z-score was -2.12

Lab note: compound `O=C(CS)NCCCCCNC(=O)[C@H]1C[C@H]2C(=O)N3CCC[C@H]3C(=O)N2[C@H]1c1ccc(O)cc1` tested on Albumin (Bos taurus); recorded composite z-score was -1.54

Lab note: compound `O=C1C[C@@](C(=O)NCCN2CCOCC2)(c2ccc([N+](=O)[O-])cc2)[C@@H](c2ccc(CO)cc2)N1C1CCCCC1` tested on Albumin (Bos taurus); recorded composite z-score was -0.218

Lab note: compound O=C1OCC=C[C@H]2OC34C=CCN(Cc5ccccc5)C(=O)[C@H]3N(CCCCCO)C(=O)[C@@H]4[C@@H]12 (some centres undefined) tested on Albumin (Bos taurus); recorded composite z-score was -0.711

Lab note: compound `NC(=O)NCC#Cc1ccc2c(c1)[C@]1(C(=O)N2)[C@H](C(N)=O)[C@H]2C(=O)O[C@H](c3ccccc3)[C@H](c3ccccc3)N2[C@@H]1c1ccccc1OCCO` tested on Albumin (Bos taurus); recorded composite z-score was 0.284
